Source of measurements: paper PMC6321071

Test: MTT cytotoxicity assay on A549 cells
Conditions: human
MEASUREMENT LABEL: CC50 (µM)
Give the number; µM is assumed, so skip it.

| CHEMICAL SMILES | CC50 (µM) |
| --- | --- |
| C[C@H](CCC(=O)O)[C@H]1CC[C@H]2[C@@H]3C[C@H](O)[C@@H]4C[C@H](O)CC[C@]4(C)[C@H]3CC[C@]12C | 486 |
| C[C@H](CCC(=O)O)[C@H]1CC[C@H]2[C@@H]3[C@@H](O)C[C@@H]4C[C@H](O)CC[C@]4(C)[C@H]3CC[C@]12C | 815 |

Please look at the following compound next.
compound `C[C@H](CCC(=O)O)[C@H]1CC[C@H]2[C@@H]3[C@H](O)C[C@@H]4C[C@H](O)CC[C@]4(C)[C@H]3CC[C@]12C` , CC50 observed: 372

###

Test: MTT cytotoxicity assay on MDCK cells
Conditions: dog
MEASUREMENT LABEL: CC50 (µM)
Provide only the numeric value, understood in µM.

Reference set (2 entries):
| CHEMICAL SMILES | EXPERIMENTAL RESULT |
| --- | --- |
| C[C@H](CCC(=O)O)[C@H]1CC[C@H]2[C@@H]3C[C@H](O)[C@@H]4C[C@H](O)CC[C@]4(C)[C@H]3CC[C@]12C | 414 |
| C[C@H](CCC(=O)O)[C@H]1CC[C@H]2[C@@H]3[C@@H](O)C[C@@H]4C[C@H](O)CC[C@]4(C)[C@H]3CC[C@]12C | 596 |

Form: compound = `C[C@H](CCC(=O)O)[C@H]1CC[C@H]2[C@@H]3[C@H](O)C[C@@H]4C[C@H](O)CC[C@]4(C)[C@H]3CC[C@]12C` ; CC50 = 121

###

System: H5N1
Experiment: microbe, parasite or virus in culture
Type: cell-based, Influenza A virus A/Duck/Guangdong/99 (H5N1)
Conditions: Influenza A virus, H5N1, A549, read-out: IC50 (H5N1)
MEASUREMENT LABEL: pIC50
Scale for pIC50: -log10 of concentration given in mol/L; no unit attached.

| COMPOUND | pIC50 |
| --- | --- |
| C[C@H](CCC(=O)O)[C@H]1CC[C@H]2[C@@H]3[C@@H](O)C[C@@H]4C[C@H](O)CC[C@]4(C)[C@H]3CC[C@]12C [UDCA, ursodeoxycholic acid] | 4.47 |
| C[C@H](CCC(=O)O)[C@H]1CC[C@H]2[C@@H]3C[C@H](O)[C@@H]4C[C@H](O)CC[C@]4(C)[C@H]3CC[C@]12C [HDCA, hyodeoxycholic acid] | 4.22 |

--- query ---
The value of pIC50 recorded for C[C@H](CCC(=O)O)[C@H]1CC[C@H]2[C@@H]3[C@H](O)C[C@@H]4C[C@H](O)CC[C@]4(C)[C@H]3CC[C@]12C [CDCA, Chenodeoxycholic acid] when tested on H5N1 reads 5.09

###

Measured IC50 of individual entries
Test system: H5N1
Assay: microbe, parasite or virus in culture
Format: cell-based, Influenza A virus A/Duck/Guangdong/99 (H5N1)
Conditions: Influenza A virus, H5N1, MDCK, read-out: IC50 (H5N1)
Report the value in µM with no unit label.

Worked set:
| CHEMICAL SMILES | SYSTEM TESTED | EXPERIMENTAL RESULT |
| --- | --- | --- |
| C[C@H](CCC(=O)O)[C@H]1CC[C@H]2[C@@H]3[C@@H](O)C[C@@H]4C[C@H](O)CC[C@]4(C)[C@H]3CC[C@]12C | H5N1 | 47.2 |
| C[C@H](CCC(=O)O)[C@H]1CC[C@H]2[C@@H]3[C@H](O)C[C@@H]4C[C@H](O)CC[C@]4(C)[C@H]3CC[C@]12C | H5N1 | 6.5 |

Attention now turns to another entry.
Documented IC50 of `C[C@H](CCC(=O)O)[C@H]1CC[C@H]2[C@@H]3C[C@H](O)[C@@H]4C[C@H](O)CC[C@]4(C)[C@H]3CC[C@]12C` : 41.2
